molecular target: Mitogen-activated protein kinase 10 (Mus musculus); assay: JNK3 AlphaScreen Assay (AID 530); conditions: JNK3 lysate, c-Jun phosphorylation; series mostly up to 11.4 µM;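 further: kinase came from lysate of stimulated human HepG2 cells; signal reports phosphorylation of biotinylated GST-cJun 1-79 at Ser73 with 10 µM ATP; on the % scale 0 is the no-effect control and ±100 the full control effect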
Results filed as inconclusive are left out. Activity calls are given as the source filed them. The call rests on the fitted dose curve; in most records, active means well fitted curve in either direction with a large enough effect (not every such curve was filed as active); inconclusive means small, poorly fitted or top-dose-only effect, or another doubt; inactive means flat fitted curve, though single readings scatter.
MEASUREMENT_LABEL: outcome

Example entries begin here.
{"columns": ["COMPOUND", "RESULT"],
 "data": [
  ["O[C@H](CN1CCN(c2cccc(Cl)c2)CC1)C(c1ccccc1)c1ccccc1", "inactive"],
  ["CC1(C)CCC(=O)N[C@H]1CC(=O)C[C@H]1NC(=O)CCC1(C)C", "inactive"],
  ["COc1cc(N=Nc2cccc(S(N)(=O)=O)c2)c2ccccc2c1N", "inactive"],
  ["COc1ncc2nc(CCc3ccccc3)c(=O)n(C)c2n1", "inactive"],
  ["CN(C)CCCc1c2ccccc2nc2ccc(Cl)cc12", "inactive"],
  ["CC1(C)[C@@H]2CC[C@]1(C)[C@@H](OC(=O)CSC#N)C2", "inactive"],
  ["O=S(=O)(O)c1cc(O)c2c(N=Cc3ccccc3O)cc(S(=O)(=O)O)cc2c1", "inactive"],
  ["Cc1cc(C)cc(C(=N)c2ccccc2Cc2cccc3ccccc23)c1", "inactive"],
  ["CC(=O)[C@H]([C@@H](c1ccccc1)N1CCOCC1)N1CCOCC1", "inactive"],
  ["COC(=O)[C@@H]1C(O)[C@@H](C(=O)OC)[C@H](C)N(C)[C@@H]1C (stereo partly drawn)", "inactive"]
]}

q: I have this compound here, O=C(O)/C(=C\c1ccccc1)c1ccccc1 , and I need its recorded outcome.
a: inactive

q: Try this compound next: Cc1ccnc(NS(=O)(=O)c2ccc(N=[N+]=[N-])cc2)n1
a: inactive

q: Entry C/C(C[n+]1ccccc1)=N\N=C(N)N please
a: inactive

q: Next: C#CCOC(=O)[C@H](N)CC(N)=O
a: inactive

q: Item: N[C@@](CC(=O)O)(Cc1ccccc1)C(=O)O
a: inactive

q: Try this compound next: Cc1ccc(C)c([C@@H]2NC(=O)c3ccccc3N2)c1
a: inactive

====

biological target: Nuclear receptor ROR-gamma (Homo sapiens); assay: qHTS assay for small molecule antagonists of the retinoid-related orphan receptor gamma (ROR-gamma) signaling pathway (AID 651802); settings: ROR-gamma antagonist cell reporter assay; series mostly up to 92.2 µM; further: nearly all actives have a fitted effect of over 60% in size
Records with an inconclusive call do not appear. The source made the active and inactive calls. Calls follow the shape of the dose curve; as a rule, active = well fitted inhibition curve with a large enough effect; inconclusive = small, poorly fitted or top-dose-only effect; inactive = no such curve, though single readings can be large or run the other way.
Classes to choose from: yes (1) for active, no (0) for inactive

Example entries and their recorded answers appear below.
{"columns": ["MOLECULE", "ASSAY_TARGET", "GROUP"],
 "data": [
  ["O=C(OCc1ccccc1)c1ccccc1O", "Nuclear receptor ROR-gamma (Homo sapiens)", "no (0)"],
  ["CCCCNCC", "Nuclear receptor ROR-gamma (Homo sapiens)", "no (0)"],
  ["Nc1cc([N+](=O)[O-])ccc1O", "Nuclear receptor ROR-gamma (Homo sapiens)", "yes (1)"],
  ["Cc1c2ccccc2c(C)c2c1ccc1ccccc12", "Nuclear receptor ROR-gamma (Homo sapiens)", "yes (1)"],
  ["Nc1cnn([C@@H]2O[C@H](CO)[C@@H](O)[C@H]2O)c(=O)n1", "Nuclear receptor ROR-gamma (Homo sapiens)", "yes (1)"],
  ["CC(=O)OCc1ccc2c(c1)OCO2", "Nuclear receptor ROR-gamma (Homo sapiens)", "no (0)"],
  ["C[C@@H]1CC2(OC(O)[C@]3(C)O[C@H]23)O[C@H]2C[C@@]3(C)[C@@H]4CC[C@H]5C(C)(C)C(O[C@@H]6OC[C@@H](O)[C@H](O)[C@H]6O)CC[C@@]56C[C@@]46CC[C@]3(C)[C@@H]12 (stereo partly specified)", "Nuclear receptor ROR-gamma (Homo sapiens)", "yes (1)"],
  ["N=C1C=CC(=C(c2ccc(N)cc2)c2ccc(N)cc2)C=C1", "Nuclear receptor ROR-gamma (Homo sapiens)", "yes (1)"]
]}

q: Short answer needed: outcome of this test for c1ccc(COCc2ccccc2)cc1 ?
a: no (0)

q: Request: O=C=Nc1ccc(Cl)c(Cl)c1
a: yes (1)

q: Try this molecule next: c1ccncc1
a: no (0)

q: Param item: CCCC(=O)OC(=O)CCC
a: no (0)

q: And the next one, Oc1c(Cl)cc(Cl)c(Cl)c1Cl ?
a: yes (1)

q: Here is the next molecule: O=C(O)/C=C/c1ccc(/C=C/C(=O)O)cc1
a: no (0)

q: Another molecule: OC1CCCCC1
a: no (0)

q: Let us now turn to c1ccc(SCCSc2ccccc2)cc1
a: no (0)

====

experiment: qHTS assay for small molecule agonists of retinoid X receptor alpha signaling (AID 588544); details: HEK293T RXRa-UAS-bla, beta-lactamase reporter, 18 h; 530 nm emission
Records with an inconclusive call do not appear.
MEASUREMENT_LABEL: max response (%)
Give just the number in %; leave the unit off.

Study these solved cases before continuing.
{"columns": ["COMPOUND", "UNIT_OF_MEASUREMENT", "max response"],
 "data": [
  ["Cc1ccc(C(=O)O)cc1[N+](=O)[O-]", "%", 0.231],
  ["CCCCCCCCC1CO1 (centres undefined)", "%", -17.5],
  ["CCC(Cl)CC(Cl)C(Cl)C(Cl)C(Cl)C(C)Cl (centres undefined)", "%", -26.2],
  ["O=c1[nH]ncc2ccccc12", "%", 10.5],
  ["C=CC(=O)OCCCCCCOC(=O)C=C", "%", 3.42],
  ["O=[N+]([O-])c1cccc(I)c1", "%", -0.727],
  ["O=C(Cl)c1ccc([N+](=O)[O-])cc1", "%", -12.7],
  ["NC(=O)c1ccc([N+](=O)[O-])cc1", "%", -9.87]
]}

q: max response lookup needed for Cc1cc(-c2ccc(N=Nc3cc(S(=O)(=O)O)c4ccccc4c3N)c(C)c2)ccc1N=Nc1cc(S(=O)(=O)O)c2ccccc2c1N , thanks.
a: -22

q: Also need CCCCNCC , thanks.
a: -3.36

q: # repeat for Cc1c(N)cccc1Cl
a: 8.41

q: Record: O=[N+]([O-])c1ccccc1Nc1ccccc1
a: -18.5

q: Moving on to the next compound: OCC(CBr)(CBr)CBr
a: -4.28

q: Now try c1ccc2ncccc2c1 .
a: 5.03

====

test system: CP335; assay: qHTS profiling for inhibitors of Plasmodium falciparum proliferation (AID 504749); further: nearly all actives have a fitted effect of over 60% in size; conditions: P. falciparum in erythrocytes, SYBR Green DNA, 72 h; series mostly up to 28.7 µM
Records with an inconclusive call do not appear. Active and inactive are the calls of the source. Calls follow the shape of the dose curve; as a rule, active = well fitted inhibition curve with a large enough effect; inconclusive = small, poorly fitted or top-dose-only effect; inactive = flat fitted curve, though single readings scatter.
Your response should consist of one outcome taken from 1 (yes) (active), 0 (no) (inactive)

Sample answers from the record:
{"columns": ["COMPOUND", "GROUP"],
 "data": [
  ["O=C(O)[C@@H](S)[C@H](S)C(=O)O", "1 (yes)"],
  ["N[C@H](COP(=O)(O)O)C(=O)O", "0 (no)"],
  ["CC1(C)[C@@H]2CC[C@]1(C)[C@@H](OC(=O)CSC#N)C2", "0 (no)"],
  ["OC[C@H](S)CS", "1 (yes)"],
  ["CN(C)[C@H]1C(=O)C(C(=O)NCN2CCCC2)=C(O)[C@]2(O)C(=O)C3=C(O)c4c(O)cccc4[C@](C)(O)[C@H]3C[C@H]12", "0 (no)"],
  ["CN1[C@@H]2CC(OC(=O)[C@@H](CO)c3ccccc3)C[C@@H]1[C@H]1O[C@H]12 (stereo not given in full)", "0 (no)"]
]}

q: Please let me know the test result on file for COc1cc2nc(N(C)CCCNC(=O)[C@@H]3CCCO3)nc(N)c2cc1OC .
a: 0 (no)

q: Same read-out for N[C@@H](Cc1ccccc1)C(=O)O ?
a: 0 (no)

q: # iterate: C=C(NC(=O)C(=C)NC(=O)c1csc(C2=N[C@@H]3c4csc(n4)[C@@H]4NC(=O)c5csc(n5)[C@@H]([C@](C)(O)[C@H](C)O)NC(=O)[C@@H]5CSC(=N5)/C(=C/C)NC(=O)[C@@H]([C@H](C)O)NC(=O)c5csc(n5)[C@]3(CC2)NC(=O)[C@@H](C)NC(=O)C(=C)NC(=O)[C@@H](C)NC(=O)[C@@H]([C@@H](C)CC)N[C@H]2C=Cc3c([C@H](C)O)cc(nc3[C@@H]2O)C(=O)O[C@H]4C)n1)C(N)=O
a: 1 (yes)

q: Now try COc1cccc2c1C(=O)c1c(O)c3c(c(O)c1C2=O)C[C@](O)(C(=O)CO)C[C@@H]3O[C@H]1C[C@H](N)[C@@H](O)[C@H](C)O1 .
a: 0 (no)

====

assay: AP1 Signaling Pathway (AID 357); settings: ME-180 (cervical carcinoma) AP-1-bla reporter, EGF-induced, beta-lactamase ratio, 5 h; at 7.69 µM (top of the series) unless noted;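 further: ME-180 reporter cells stimulated with EGF at its EC50 level; on the % scale 0 is the no-effect control and ±100 the full control effect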
Inconclusive results are not listed.
Listing of recorded activity change, negative = inhibition by entry.
The answer is to be given in %; state only the numeric part.

# count of solved cases: 4
{"columns": ["SMILES_NOTATION", "MEASUREMENT_LABEL", "NUMERIC_RESULT"],
 "data": [
  ["NCC(=O)Nc1ccc(Cl)cc1C(=O)c1ccc[nH]1", "activity change, negative = inhibition", -2.05],
  ["CC1(C)S[C@@H]2[C@H](NC(=O)C3(N)CCCCC3)C(=O)N2[C@@H]1C(=O)O", "activity change, negative = inhibition", -5.88],
  ["Clc1ccc(CSCCc2ccncc2)cc1Cl", "activity change, negative = inhibition", -26.7],
  ["Cc1nc2cnc(Oc3ccccc3)nc2n(CCc2ccccc2)c1=O", "activity change, negative = inhibition", 17.9]
]}

q: Quick one: activity change, negative = inhibition of Cn1c(=O)c2[nH]c([C@@H]3CC(=O)C[C@H](c4nc5c([nH]4)c(=O)n(C)c(=O)n5C)N3)nc2n(C)c1=O ?
a: 3.07

q: Lookup c1ccc(CCNCc2ccco2)nc1
a: 3.76

q: Request: Nc1nc(SCc2ccccc2[N+](=O)[O-])c2[nH]cnc2n1
a: -3.57

q: Lookup CC(C)[C@H](N=Cc1ccccc1O)C(=O)O
a: -4.87

q: Would you mind doing Cc1cc(C(=O)CSC(=S)SC(C)(C)C)ccc1Cl as well?
a: 7.67

q: // next record O=C(O)CSCCc1ccccc1
a: 6.88

q: // repeat for O=S1(=O)CCN(Cc2ccccn2)CC1 and report
a: 0.374

q: Also COc1ccccc1-c1ccc2ncnc(NCc3cccnc3)c2c1 ?
a: -18.5
